Assign pKi to each entry below.
- assayedTarget: MMP-13 (Homo sapiens)
- Construct: made in house; host or cells: baculovirus / insect cells
- assayProtocol: MMP-13 inhibition (in vitro Ki)
- Type: biochemical
- experimentalContext: Table 9; read-out: MMP-13 Ki (IC-50)
Answers are plain numbers, as −log10 of the molar value.

Some solved cases for reference:
- mol: "O=C(NO)C1(S(=O)(=O)N2CCC(c3cnc(CCC(F)(F)F)cn3)CC2)CCOCC1"
  pKi: 8.70
- mol: "O=C(NO)C1(S(=O)(=O)N2CCN(c3ccc(CCCC(F)(F)F)cc3)CC2)CCN(CC(F)(F)F)CC1"
  pKi: 8.97
- mol: "Cn1nnc(-c2ccc(C3CCN(S(=O)(=O)C4(C(=O)NO)CCOCC4)CC3)cc2)n1"
  pKi: 8.68
- mol: "CN(CC1CCCCC1)C(=O)CCCCC1CCN(S(=O)(=O)C2(C(=O)NO)CCOCC2)CC1"
  pKi: 9.04
- mol: "O=C(NCCCCC1CCN(S(=O)(=O)C2(C(=O)NO)CCOCC2)CC1)C1(c2ccccc2)CC1"
  pKi: 9.09

Could I get pKi for every one of these entries?
1. CC(C)CC#Cc1ccc(C2CCN(S(=O)(=O)C3(C(=O)NO)CCOCC3)CC2)nc1
2. Cc1cnn(-c2ccc(C3CCN(S(=O)(=O)C4(C(=O)NO)CCOCC4)CC3)nc2)c1

OUT:
9.85
8.68

Could I get pKi for every one of these entries?
1. O=C(/C=C/C=C/C1CCN(S(=O)(=O)C2(C(=O)NO)CCOCC2)CC1)N1CCN(c2ccccc2)CC1
2. O=C(NO)C1(S(=O)(=O)N2CCC(c3ccc(CCC(F)(F)C(F)(F)F)cn3)CC2)CCN(Cc2ccccc2)CC1
3. O=C(NO)C1(S(=O)(=O)N2CCC(c3cnc(OCC(F)(F)C(F)F)cn3)CC2)CCOCC1
4. O=C(NO)C1(S(=O)(=O)N2CCN(c3ccc(CCC(F)(F)C(F)(F)F)cn3)CC2)CCOCC1
5. O=C(NO)C1(S(=O)(=O)N2CCC(c3ccc(COCC4CC4)cn3)CC2)CCOCC1

OUT:
1. 8.17
2. 9.28
3. 9.05
4. 9.66
5. 9.52

Could I get pKi for every one of these entries?
1. CN(C(=O)CCCC1CCN(S(=O)(=O)C2(C(=O)NO)CCOCC2)CC1)c1ccc(F)cc1
2. CN(C(=O)CCCC1CCN(S(=O)(=O)C2(C(=O)NO)CCOCC2)CC1)C1CCCCC1
3. COCCCc1ccc(C2CCN(S(=O)(=O)C3(C(=O)NO)CCOCC3)CC2)nc1
4. O=C(NO)C1(S(=O)(=O)N2CCC(c3ccc(-n4ccnc4)cn3)CC2)CCOCC1

OUT:
7.50
7.65
8.99
8.41

Could I get pKi for every one of these entries?
1. COCc1ccc(C2CCN(S(=O)(=O)C3(C(=O)NO)CCOCC3)CC2)nc1
2. C#CCN(C)C(=O)CCCCC1CCN(S(=O)(=O)C2(C(=O)NO)CCOCC2)CC1

OUT:
1: 8.17; 2: 8.80

====

- assayedTarget: MMP-13 (Homo sapiens)
- Construct: made in house; host or cells: baculovirus / insect cells
- assayProtocol: MMP-13 inhibition (in vitro Ki)
- Format: biochemical
- experimentalContext: Table 9; read-out: MMP-13 Ki (IC-50)
measurementName: Ki
# include the unit after the value

Some solved cases for reference:
- mol: "O=C(NO)C1(S(=O)(=O)N2CCC(c3ccc(CCC(F)(F)C(F)(F)F)cn3)CC2)CCNCC1"
  measurementName: "Ki"
  experimentalValue: "1.55 nM"
- mol: "O=C(NO)C1(S(=O)(=O)N2CCC(c3ccc(CCc4ccsc4)cn3)CC2)CCOCC1"
  measurementName: "Ki"
  experimentalValue: "0.376 nM"
- mol: "CN(C(=O)CCCCC1CCN(S(=O)(=O)C2(C(=O)NO)CCOCC2)CC1)C1CCCCC1"
  measurementName: "Ki"
  experimentalValue: "1.1 nM"
- mol: "O=C(NO)C(CC1CC1)(CC1CC1)S(=O)(=O)N1CCC(c2ccc(CCC(F)(F)F)cn2)CC1"
  measurementName: "Ki"
  experimentalValue: "1.82 nM"
- mol: "CN(C(=O)CCCCN1CCN(S(=O)(=O)C2(C(=O)NO)CCOCC2)CC1)C1CCCCC1"
  measurementName: "Ki"
  experimentalValue: "106 nM"
- mol: "O=C(NO)C1(S(=O)(=O)N2CCN(c3ccc(-c4nnn(CC(F)(F)F)n4)cc3)CC2)CCOCC1"
  measurementName: "Ki"
  experimentalValue: "0.04 nM"

Let us move to another entry and its Ki.
Entry O=C(NO)C1(S(=O)(=O)N2CCC(OCCCn3nnc(-c4ccc(OC(F)(F)F)cc4)n3)CC2)CCOCC1 ; Ki = 0.37 nM

====

Assign log10 Ki to each entry below.
- assayedTarget: MMP-14 (Homo sapiens)
- Construct: The catalytic domain enzyme was expressed in E. coli inclusion bodies, solubilized in urea; made in house
- assayProtocol: MMP-14 inhibition (in vitro Ki)
- Assay type: biochemical
- experimentalContext: Table 9; read-out: MMP-14 Ki (IC-50)
Log10 applied to Ki; unit prior to transform: nM.

- mol: "O=C(NO)C1(S(=O)(=O)N2CCC(c3cnc(OCC(F)(F)C(F)F)cn3)CC2)CCOCC1"
  assayedTarget: "MMP-14 (Homo sapiens)"
  log10 Ki: 3.76
- mol: "O=C(NO)C1(S(=O)(=O)N2CCN(c3ccc(-c4nnn(CC(F)(F)F)n4)cc3)CC2)CCOCC1"
  assayedTarget: "MMP-14 (Homo sapiens)"
  log10 Ki: 2.46
- mol: "C/C(COc1ccc(C2CCN(S(=O)(=O)C3(C(=O)NO)CCOCC3)CC2)nc1)=N/O"
  assayedTarget: "MMP-14 (Homo sapiens)"
  log10 Ki: 3.97

Could I get log10 Ki for every one of these entries?
1. O=C(NO)C1(S(=O)(=O)N2CCC(c3ccc(-n4ccnc4)cn3)CC2)CCOCC1
2. CC(=O)OCCCC#Cc1ccc(C2CCN(S(=O)(=O)C3(C(=O)NO)CCOCC3)CC2)nc1
3. O=C(NO)C1(S(=O)(=O)N2CCC(c3ccc(CCC(F)F)cn3)CC2)CCOCC1
4. O=C(NO)C1(S(=O)(=O)N2CCC(c3ccc(CCC4CC4)cn3)CC2)CCOCC1

OUT:
[3.79, 2.78, 3.22, 3.11]

====

Assign pKi to each entry below.
- assayedTarget: MMP-13 (Homo sapiens)
- Construct: made in house; host or cells: baculovirus / insect cells
- assayProtocol: In vitro MMP inhibition, Ki determination (fluorogenic substrate II)
- Assay type: biochemical
- experimentalContext: human recombinant enzyme; 4 μM substrate II; room temperature, 1 hr; read-out: MMP-13 Ki
Counter-ions that a name gives are not always drawn.
Numbers only, as −log10 of the molar value.

- compound: "O=C(NO)C1(S(=O)(=O)N2CCN(c3ccc(OCC(F)(F)F)cc3)CC2)CCOCC1 [Example 2, Hydrochloride]"
  assayedTarget: "MMP-13 (Homo sapiens)"
  pKi: 9.11

Could I get pKi for every one of these entries?
1. COCCOc1ccc(N2CCN(S(=O)(=O)C3(C(=O)NO)CCOCC3)CC2)cc1 [Example 14, Hydrochloride]
2. COCCN1CCC(C(=O)NO)(S(=O)(=O)N2CCC(c3ccc(OCCCC(F)(F)F)cc3)CC2)CC1 [Example 20, Hydrochloride]
3. CCCCOc1ccc(C2CCN(S(=O)(=O)C3(C(=O)NO)CCN(CCOC)CC3)CC2)cc1 [Example 16, Hydrochloride]

OUT:
8.57
9.82
9.47

====

Assign pKi to each entry below.
- assayedTarget: MMP-1 (Homo sapiens)
- Construct: made in house; host or cells: MMP-1-transfected HT-1080 cells (spent media)
- Sequence (P03956 100-469): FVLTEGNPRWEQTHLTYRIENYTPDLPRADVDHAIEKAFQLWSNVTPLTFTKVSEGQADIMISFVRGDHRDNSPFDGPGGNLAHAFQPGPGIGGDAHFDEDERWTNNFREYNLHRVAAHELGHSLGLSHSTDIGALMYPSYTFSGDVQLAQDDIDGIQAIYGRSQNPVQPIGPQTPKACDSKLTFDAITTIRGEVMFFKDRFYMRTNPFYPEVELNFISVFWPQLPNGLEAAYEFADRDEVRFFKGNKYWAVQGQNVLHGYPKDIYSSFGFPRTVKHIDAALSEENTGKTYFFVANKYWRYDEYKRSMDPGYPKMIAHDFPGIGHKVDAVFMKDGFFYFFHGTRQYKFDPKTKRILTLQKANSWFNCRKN
- assayProtocol: In vitro MMP inhibition, Ki determination (fluorogenic substrate II)
- Type: biochemical
- experimentalContext: value not in parenthesis; read-out: MMP-1 Ki
pKi: −log10 of the molar value.

Could I get pKi for every one of these entries?
1. O=C(NO)C1(S(=O)(=O)N2CCN(c3ccc(OCc4ccccc4)cn3)CC2)CCOCC1
2. CCCCOc1ccc(N2CCN(S(=O)(=O)C3(C(=O)NO)CCN(c4ccsc4)CC3)CC2)cc1
3. CCCCOc1ccc(N2CCN(S(=O)(=O)C3(C(=O)NO)CCN(c4ccc(O)cc4)CC3)CC2)cc1
4. COCCN1CCC(C(=O)NO)(S(=O)(=O)N2CCN(c3ccccn3)CC2)CC1

OUT:
1: 5.49; 2: < 5.00; 3: < 5.00; 4: 5.84

Could I get pKi for every one of these entries?
1. COCCN1CCC(C(=O)NO)(S(=O)(=O)N2CCN(c3ccc(OCCCCF)cc3)CC2)CC1
2. CCCCOc1ccc(N2CCN(S(=O)(=O)C3(C(=O)NO)CCN(c4nccs4)CC3)CC2)cc1
3. CCCCOc1ccc(N2CCN(S(=O)(=O)C3(C(=O)NO)CCSCC3)CC2)cc1

OUT:
1. < 5.00
2. < 5.00
3. < 5.00

Could I get pKi for every one of these entries?
1. CCCCOc1ccc(N2CCN(S(=O)(=O)C3(C(=O)NO)CCOCC3)CC2)cc1
2. CCCCOc1ccc(N2CCN(S(=O)(=O)C3(C(=O)NO)CCN(c4cccnc4)CC3)CC2)cc1
3. CCCCOc1c(F)cc(N2CCN(S(=O)(=O)C3(C(=O)NO)CCN(CCOC)CC3)CC2)cc1F
4. COCCN1CCC(C(=O)NO)(S(=O)(=O)N2CCN(c3ccc(CCCCC(C)C)cc3)CC2)CC1
5. COCCN1CCC(C(=O)NO)(S(=O)(=O)N2CCN(c3ccc(C(C)=O)cc3)CC2)CC1
6. O=C(NO)C1(S(=O)(=O)N2CCN(c3ccc(OCCN4CCCC4)cc3)CC2)CCOCC1

OUT:
["< 5.00", "< 5.00", "< 5.00", "< 5.00", 5.33, "< 5.00"]

Could I get pKi for every one of these entries?
1. CCCCOc1ccc(N2CCN(S(=O)(=O)C3(C(=O)NO)CCN(Cc4nccn4C)CC3)CC2)cc1
2. CCCCOc1ccc(N2CCN(S(=O)(=O)C3(C(=O)NO)CCN(C(=O)NC(C)(C)C)CC3)CC2)cc1
3. CCCCCCCCCc1cnc(N2CCN(S(=O)(=O)C3(C(=O)NO)CCOCC3)CC2)nc1 [Example 110]
4. CCCCOc1ccc(N2CCN(S(=O)(=O)C3(C(=O)NO)CCN(C(=O)N4CCCCC4)CC3)CC2)cc1
5. O=C(NO)C1(S(=O)(=O)N2CCN(c3ccc(OCCCC(F)(F)F)cc3F)CC2)CCOCC1 [Example 117]
6. CCN1CCC(C(=O)NO)(S(=O)(=O)N2CCN(c3ccc(OCCCC(F)(F)F)cc3)CC2)CC1
7. CCCCOc1ccc(N2CCN(S(=O)(=O)C3(C(=O)NO)CCN(C(=O)NCCOC)CC3)CC2)cc1
8. CCCCCc1ccc(N2CCN(S(=O)(=O)C3(C(=O)NO)CCN(c4ncccn4)CC3)CC2)nc1

OUT:
["< 5.00", "< 5.00", "< 5.00", "< 5.00", "< 5.00", "< 5.00", "< 5.00", "< 5.00"]

Could I get pKi for every one of these entries?
1. CCCCOc1ccc(N2CCN(S(=O)(=O)C3(C(=O)NO)CCN(C(=O)OCCOC)CC3)CC2)cc1
2. CCCCOc1ccc(N2CCN(S(=O)(=O)C3(C(=O)NO)CCN(c4ccc(Cl)c(Cl)c4)CC3)CC2)cc1
3. COCCN1CCC(C(=O)NO)(S(=O)(=O)N2CCN(c3ccc(OCC(F)(F)C(F)(F)F)cc3)CC2)CC1
4. COCCN1CCC(C(=O)NO)(S(=O)(=O)N2CCN(c3ccc(OCCC(C)C)cc3)CC2)CC1

OUT:
5.05
< 5.00
< 5.00
< 5.00

Could I get pKi for every one of these entries?
1. CCCCCc1ccc(N2CCN(S(=O)(=O)C3(C(=O)NO)CCN(C(=O)CC)CC3)CC2)cc1
2. CCCCOc1ccc(N2CCN(S(=O)(=O)C3(C(=O)NO)CCN(C(=O)OCC(F)(F)F)CC3)CC2)cc1
3. CCCCOc1ccc(N2CCN(S(=O)(=O)C3(C(=O)NO)CCN(c4ncccn4)CC3)CC2)cc1
4. CCCCc1ccc(N2CCN(S(=O)(=O)C3(C(=O)NO)CCN(c4cccnc4)CC3)CC2)nc1
5. COCCN1CCC(C(=O)NO)(S(=O)(=O)N2CCN(c3ccc(C)cc3)CC2)CC1

OUT:
1. < 5.00
2. < 5.00
3. < 5.00
4. < 5.00
5. 5.11

Could I get pKi for every one of these entries?
1. CCCCCc1ccc(N2CCN(S(=O)(=O)C3(C(=O)NO)CCN(S(=O)(=O)N(C)C)CC3)CC2)cc1
2. CCCCOc1ccc(N2CCN(S(=O)(=O)C3(C(=O)NO)CCN(c4ccc(N(C)C)cc4)CC3)CC2)cc1

OUT:
["< 5.00", "< 5.00"]
